Data credit: patent US6716833B2

- targetOfAssay: TNF-α converting enzyme (TACE) (Homo sapiens, UniProt P78536)
- Sequence (P78536 215-824, species assumed): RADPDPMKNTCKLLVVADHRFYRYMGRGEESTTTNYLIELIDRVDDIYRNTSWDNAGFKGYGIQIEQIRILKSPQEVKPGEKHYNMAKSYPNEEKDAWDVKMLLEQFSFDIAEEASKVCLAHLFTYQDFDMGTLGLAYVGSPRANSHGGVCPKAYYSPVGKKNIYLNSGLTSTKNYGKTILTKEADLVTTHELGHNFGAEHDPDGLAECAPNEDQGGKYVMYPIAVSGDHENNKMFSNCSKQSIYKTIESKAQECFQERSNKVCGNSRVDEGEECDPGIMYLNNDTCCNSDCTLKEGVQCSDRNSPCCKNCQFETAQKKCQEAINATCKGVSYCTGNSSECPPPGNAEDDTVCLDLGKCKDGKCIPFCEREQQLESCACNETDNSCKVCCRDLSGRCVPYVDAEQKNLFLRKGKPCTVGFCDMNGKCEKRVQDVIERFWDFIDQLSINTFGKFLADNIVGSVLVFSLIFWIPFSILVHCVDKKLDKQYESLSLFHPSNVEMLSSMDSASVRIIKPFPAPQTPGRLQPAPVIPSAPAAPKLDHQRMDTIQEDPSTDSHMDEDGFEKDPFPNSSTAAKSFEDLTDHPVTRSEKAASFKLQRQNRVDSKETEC
- assayInfo: TACE inhibition (fluorescent peptidyl substrate)
- Format: biochemical
- conditionDetails: IC 50 nM (In Vitro Inhibition of TACE), Table 15
So basically, the class depends on measured IC50, and the ranges are bottom end = under 9 nM, midrange = from 9 nM up to 20 nM, top end = 20 nM and over

q: Could you place `CC#CCOc1ccc(S(=O)(=O)N[C@H](CCCNC(=O)CN2CCOCC2)C(=O)NO)cc1` in its proper category? Many thanks.
a: top end

q: Could you place `CC#CCOc1ccc(S(=O)(=O)N[C@@H](C(=O)NO)[C@H](C)OCc2ccccc2)cc1` in its proper category? Many thanks.
a: midrange

q: Which category does the recorded IC50 put `CC#CCOc1ccc(S(=O)(=O)N[C@H](CCCNC(=O)c2ccccc2)C(=O)NO)cc1` in?
a: bottom end

q: For this compound, which bin applies? `CC#CCOc1ccc(S(=O)(=O)N[C@H](CCCCNC(=O)c2ccc(Br)cc2)C(=O)NO)cc1`
a: midrange

q: # bin lookup: classify `CC#CCOc1ccc(S(=O)(=O)N[C@H](CCCCNC(=O)c2cc(C)oc2C)C(=O)NO)cc1` by its IC50
a: midrange

q: Tag the class for `CC#CCOc1ccc(S(=O)(=O)N[C@@H](CC2CCCCC2)C(=O)NO)cc1`
a: top end

q: Please indicate the class for `CC#CCOc1ccc(S(=O)(=O)N[C@H](CCCNC(=O)OCCCCCCCC)C(=O)NO)cc1` based on its IC50.
a: top end

q: Please report the category associated with `CC#CCOc1ccc(S(=O)(=O)N[C@@H](CCCNC(=N)N)C(=O)NO)cc1` , nothing else.
a: top end

q: Tag the class for `CC#CCOc1ccc(S(=O)(=O)N[C@@H](CSCc2ccc(OC)cc2)C(=O)NO)cc1`
a: top end

q: The entry to classify is `CC#CCOc1ccc(S(=O)(=O)N[C@H](CCCCNC(=O)c2ccsc2)C(=O)NO)cc1` ; which class holds it?
a: midrange

q: Please indicate the class for `CC#CCOc1ccc(S(=O)(=O)N[C@H](CCCNC(=O)Cc2ccc([N+](=O)[O-])cc2)C(=O)NO)cc1` based on its IC50.
a: bottom end

q: Looking at `CC#CCOc1ccc(S(=O)(=O)N[C@H](CCCNC(=O)c2ccc3[nH]cnc3c2)C(=O)NO)cc1` , which class would you pick?
a: bottom end

q: Which IC50 band matches `CC#CCOc1ccc(S(=O)(=O)N[C@H](CCCNC(=O)N(C)c2ccccc2)C(=O)NO)cc1` ?
a: midrange

q: Which bin should I file `CC#CCOc1ccc(S(=O)(=O)N[C@H](CCCCNC(=O)C2CCCCC2)C(=O)NO)cc1` under?
a: bottom end

q: Which IC50 category applies to `CC#CCOc1ccc(S(=O)(=O)N[C@@H](CCCC)C(=O)NO)cc1` here?
a: top end

q: Input `CC#CCOc1ccc(S(=O)(=O)N[C@H](Cc2cnc[nH]2)C(=O)NO)cc1` ; output its category
a: bottom end

q: Hi, small favor: classify `CC#CCOc1ccc(S(=O)(=O)N[C@H](CC(N)=O)C(=O)NO)cc1` by its IC50 when you get a moment.
a: top end

q: Band assignment needed for `CC#CCOc1ccc(S(=O)(=O)N[C@H](CSC(C)(C)C)C(=O)NO)cc1` please.
a: midrange

q: Assign a category based on measured IC50 for `CC#CCOc1ccc(S(=O)(=O)N[C@H](CCCNC(=O)c2ccccc2OC)C(=O)NO)cc1` and give only the class name.
a: bottom end

q: Assign a bin to `CC#CCOc1ccc(S(=O)(=O)N[C@H](CCCCNC(=O)c2ccc(Cl)cc2)C(=O)NO)cc1`
a: bottom end

q: Band of `CC#CCOc1ccc(S(=O)(=O)N[C@H](CCCCNC(=O)c2c(C)noc2C)C(=O)NO)cc1` ?
a: midrange

q: Which IC50 category applies to `CC#CCOc1ccc(S(=O)(=O)N[C@H](Cc2ccc([N+](=O)[O-])cc2)C(=O)NO)cc1` here?
a: bottom end

q: Lab note: which band did `CC#CCOc1ccc(S(=O)(=O)N[C@H](CCc2ccccc2)C(=O)NO)cc1` land in?
a: midrange

q: Which IC50 band matches `CC#CCOc1ccc(S(=O)(=O)N[C@H](Cc2ccc(O)cc2)C(=O)NO)cc1` ?
a: bottom end

q: Dear colleague, I would appreciate it if you could identify the bin for `CC#CCOc1ccc(S(=O)(=O)N[C@H](Cc2c[nH]c3ccccc23)C(=O)NO)cc1` and reply at your convenience.
a: top end

q: Record `CC#CCOc1ccc(S(=O)(=O)N[C@H](CC2CCCCC2)C(=O)NO)cc1` — which class?
a: bottom end

q: Consider `CC#CCOc1ccc(S(=O)(=O)N[C@H](CCSC)C(=O)NO)cc1` . To which IC50 class does it belong?
a: midrange

q: Exam item: assign `CC#CCOc1ccc(S(=O)(=O)N[C@H](CCCCNC(=O)c2ccc3[nH]cnc3c2)C(=O)NO)cc1` to the correct category.
a: midrange

q: Looking at `CC#CCOc1ccc(S(=O)(=O)N[C@@H](CC(C)C)C(=O)NO)cc1` , which class would you pick?
a: top end

q: Which bin should I file `CC#CCOc1ccc(S(=O)(=O)N[C@H](CCCCNC(=O)c2cnc3ccccc3c2)C(=O)NO)cc1` under?
a: bottom end

q: For `CC#CCOc1ccc(S(=O)(=O)N[C@H](CCCNC(=O)c2cccs2)C(=O)NO)cc1` , which IC50 bin applies?
a: top end
